target: sigma receptor (Cavia porcellus)
Sequence (Q60492 whole entry): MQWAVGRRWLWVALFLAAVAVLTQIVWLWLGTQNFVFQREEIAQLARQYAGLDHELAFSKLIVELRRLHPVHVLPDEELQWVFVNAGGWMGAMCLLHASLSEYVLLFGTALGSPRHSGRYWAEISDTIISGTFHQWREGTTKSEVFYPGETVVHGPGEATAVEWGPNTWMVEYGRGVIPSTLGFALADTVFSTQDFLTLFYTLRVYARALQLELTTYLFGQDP
measure.name: Ki (nM)

> print(dat)
                molecular.string  measure.name  value.units  assay.result
1  Clc1ccc(CCN2CCN3CCC2CC3)cc1Cl            Ki           nM           125
